- Assay explanation: Plasma DCA levels by HPLC after bolus, adult CABG patients (Example A)
- Type: in vivo
- Condition set: human, 50 mg/kg, following infusion of 50mg/kg Na+ Dichloroacetate via cardiopulmonary bypass pump, 1 hour following administration, n=8
Readout: concentration at 1 h

// query Reported concentration at 1 h for O=C(O)C(Cl)Cl [DCA, dichloroacetate] : what is it?
// result ~1000 µM

* * *

- Assay explanation: Plasma DCA levels by HPLC, bolus and infusion protocol (Example C)
- Assay type: in vivo, pediatric patients
- Condition set: human, 50 mg/kg, Group A protocol (50mg/kg bolus, 25mg/kg/hr infusion), 24 hour interval, initial patients, read-out: plasma concentrations of DCA
- Description: DCA (50mg/kg) or placebo was injected into the aortic root immediately prior to removing aortic cross clamp. The coded solutions were made such that a dose of 1 ml/kg provided either a DCA therapeutic level of 1mM plasma concentration of DCA, or a placebo solution. […] All blood samples were analyzed by HPLC for DCA concentration. DCA (100mg/kg) or placebo was injected into the aortic root immediately prior to removing aortic cross clamp. […] All blood samples were analyzed by HPLC for DCA concentration. […]
Readout: concentration at 24 h

// query Reported concentration at 24 h for O=C(O)C(Cl)Cl [DCA, dichloroacetate] : what is it?
// result > 1000 µM

* * *

- Assay explanation: Plasma DCA levels by HPLC, bolus and infusion protocol (Example C)
- Type: in vivo, pediatric patients
- Condition set: human, 50 mg/kg, Group A, 50mg/kg bolus and 25mg/kg/hr infusion, patients with greatest degree of clinical benefits, m=6, read-out: Average Optimum Mean of DCA Plasma Levels, mM at 24 hr
Readout: concentration at 24 h (mM)
Unit mM implied. Number only.

// query Reported concentration at 24 h for O=C(O)C(Cl)Cl [DCA, dichloroacetate] : what is it?
// result 2.29

* * *

- Assay explanation: Plasma DCA levels by HPLC, bolus and infusion protocol (Example C)
- Assay type: in vivo, pediatric patients
- Condition set: human, 50 mg/kg, Group A, 50mg/kg bolus and 25mg/kg/hr infusion, patients with greatest degree of clinical benefits, m=5, read-out: Average Optimum Mean of DCA Plasma Levels, mM at 12 hr
Readout: concentration at 12 h

// query Reported concentration at 12 h for O=C(O)C(Cl)Cl [DCA, dichloroacetate] : what is it?
// result 1.52 mM

* * *

- Assay explanation: Plasma DCA levels by HPLC, bolus and infusion protocol (Example C)
- Format: in vivo, pediatric patients
- Condition set: human, 50 mg/kg, Group A, 50mg/kg bolus and 25mg/kg/hr infusion, n=11, read-out: Average DCA Plasma Levels, mM at 1 hr
- Description: DCA (50mg/kg) or placebo was injected into the aortic root immediately prior to removing aortic cross clamp. The coded solutions were made such that a dose of 1 ml/kg provided either a DCA therapeutic level of 1mM plasma concentration of DCA, or a placebo solution. […] All blood samples were analyzed by HPLC for DCA concentration. DCA (100mg/kg) or placebo was injected into the aortic root immediately prior to removing aortic cross clamp. […] All blood samples were analyzed by HPLC for DCA concentration. […]
Readout: concentration at 1 h (mM)
Unit mM implied. Number only.

// query Reported concentration at 1 h for O=C(O)C(Cl)Cl [DCA, dichloroacetate] : what is it?
// result 0.46
